Each entry below lists one item and its recorded IC50 value.
Target: recombinant human GR (Homo sapiens, UniProt P04150)
Construct: purchased Panvera/Invitrogen P2812 (kit P2893)
Sequence (P04150 1-777): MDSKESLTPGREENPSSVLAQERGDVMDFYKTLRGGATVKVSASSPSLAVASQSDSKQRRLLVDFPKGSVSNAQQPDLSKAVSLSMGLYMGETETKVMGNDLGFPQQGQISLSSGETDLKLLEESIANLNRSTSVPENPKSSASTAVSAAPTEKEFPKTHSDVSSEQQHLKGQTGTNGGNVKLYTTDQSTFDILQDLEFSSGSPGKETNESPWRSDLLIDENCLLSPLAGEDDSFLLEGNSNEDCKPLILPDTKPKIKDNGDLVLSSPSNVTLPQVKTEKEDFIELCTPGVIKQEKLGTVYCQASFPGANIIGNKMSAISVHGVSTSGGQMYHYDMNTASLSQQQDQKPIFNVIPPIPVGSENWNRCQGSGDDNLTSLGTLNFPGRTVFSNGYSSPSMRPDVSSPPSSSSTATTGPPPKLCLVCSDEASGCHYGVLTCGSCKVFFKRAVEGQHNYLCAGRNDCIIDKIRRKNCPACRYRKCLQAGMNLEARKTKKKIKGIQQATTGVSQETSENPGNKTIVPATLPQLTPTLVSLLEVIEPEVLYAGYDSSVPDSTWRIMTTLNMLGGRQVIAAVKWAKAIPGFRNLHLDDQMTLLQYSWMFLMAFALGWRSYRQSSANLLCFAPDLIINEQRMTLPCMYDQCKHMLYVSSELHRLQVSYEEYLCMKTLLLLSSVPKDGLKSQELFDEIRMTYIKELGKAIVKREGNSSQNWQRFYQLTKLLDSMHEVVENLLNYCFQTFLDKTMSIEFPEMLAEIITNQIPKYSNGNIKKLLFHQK
Test: Human Glucocorticoid Receptor (GR) Assay, fluorescence polarization competition with GS Red tracer
Conditions: 2 hours at room temperature, 100% control 10 μM Dexamethasone, XLfit model 205, read-out: Inhibition of GR binding, IC50
Field: numeric (nM). Do not append units.

Answered cases to consult:
COMPOUND	MEASURED_ATTRIBUTE	REPORTED_MEASUREMENT
COCC(=O)O[C@]1(C(=O)SCF)[C@H](C)C[C@H]2[C@@H]3CCC4=Cc5c(cnn5-c5cccc(C(=O)NCc6cccnc6)c5)C[C@]4(C)[C@@]3(F)[C@@H](O)C[C@@]21C	IC50	3.3
C[C@H]1C[C@@H]2[C@H]([C@@H](O)C[C@@]3(C)[C@H]2CC[C@]3(OC(=O)[C@H]2CCCO2)C(=O)SCF)[C@@]2(C)Cc3cnn(-c4cccc(C(=O)NCC(N)=O)c4)c3C=C12	IC50	2.2
COCC(=O)O[C@]1(C(=O)SCC#N)CC[C@H]2[C@@H]3CCC4=Cc5c(cnn5-c5cccc(C(=O)N6CCC[C@@H]6C(N)=O)c5)C[C@]4(C)[C@@]3(F)[C@@H](O)C[C@@]21C	IC50	10
CCC(=O)O[C@]1(C(=O)SCF)CC[C@H]2[C@@H]3CCC4=Cc5c(cnn5-c5cccc(C(=O)NCCSC)c5)C[C@]4(C)[C@H]3[C@@H](O)C[C@@]21C	IC50	1.4
CCC(=O)O[C@]1(C(=O)SCF)CC[C@H]2[C@@H]3C[C@H](C)C4=Cc5c(cnn5-c5cccc(C(=O)N[C@H](C)C(N)=O)c5)C[C@]4(C)[C@H]3[C@@H](O)C[C@@]21C	IC50	2.1

Exercise: IC50 for `CCC(=O)O[C@]1(C(=O)SCF)[C@H](C)C[C@H]2[C@@H]3CCC4=Cc5c(cnn5-c5cccc(C(=O)NCc6cccnc6)c5)C[C@]4(C)[C@@]3(F)[C@@H](O)C[C@@]21C` ?
Solution: 1.9

Exercise: For `COCCNC(=O)c1cccc(-n2ncc3c2C=C2CC[C@@H]4[C@H]([C@@H](O)C[C@@]5(C)[C@H]4CC[C@]5(OC(=O)COC)C(=O)SCF)[C@@]2(C)C3)c1` , what is its reported IC50?
Solution: 1.6

Exercise: Which IC50 reading was recorded for the compound `CCC(=O)O[C@]1(C(=O)SCF)CC[C@H]2[C@@H]3C[C@H](C)C4=Cc5c(cnn5-c5cccc(C(=O)NCC(N)=O)c5)C[C@]4(C)[C@H]3[C@@H](O)C[C@@]21C` ?
Solution: 7.1

Exercise: Which IC50 is listed for `C[C@H]1C[C@@H]2[C@H]([C@@H](O)C[C@@]3(C)[C@H]2CC[C@]3(OC(=O)C2CC2)C(=O)SCF)[C@@]2(C)Cc3cnn(-c4cccc(C(=O)NCC(N)=O)c4)c3C=C12` ?
Solution: 1.2

Exercise: Give the measured IC50 of `CSCCNC(=O)c1cccc(-n2ncc3c2C=C2CC[C@@H]4[C@H]([C@@H](O)C[C@@]5(C)[C@H]4CC[C@]5(OC(=O)C4CC4)C(=O)SCC#N)[C@@]2(C)C3)c1` .
Solution: 0.91

Exercise: Name the recorded IC50 for CCC(=O)O[C@]1(C(=O)SCC#N)CC[C@H]2[C@@H]3CCC4=Cc5c(cnn5-c5cccc(C(=O)NC6CCS(=O)(=O)C6)c5)C[C@]4(C)[C@H]3[C@@H](O)C[C@@]21C (stereo partly drawn) .
Solution: 4.3

Exercise: Name the reported IC50 value associated with the compound `COCC(=O)O[C@]1(C(=O)SCF)CC[C@H]2[C@@H]3CCC4=Cc5c(cnn5-c5cccc(C(=O)N6CCC[C@@H]6C(N)=O)c5)C[C@]4(C)[C@@]3(F)[C@@H](O)C[C@@]21C`
Solution: 4.3

Exercise: Recorded IC50 of `CCC(=O)O[C@]1(C(=O)SCF)CC[C@H]2[C@@H]3CCC4=Cc5c(cnn5-c5cccc(C(=O)N[C@@H](C)C(N)=O)c5)C[C@]4(C)[C@@]3(F)[C@@H](O)C[C@@]21C` , please.
Solution: 6.5

Exercise: Given the compound `CCNC(=O)c1cccc(-n2ncc3c2C=C2CC[C@H]4[C@@H]5C[C@@H](C)[C@](OC(=O)COC)(C(=O)SCF)[C@@]5(C)C[C@H](O)[C@]4(F)[C@@]2(C)C3)c1` , what is its reported IC50?
Solution: 0.47

Exercise: // lookup IC50 for `CCC(=O)O[C@]1(C(=O)SCF)[C@H](C)C[C@H]2[C@@H]3CCC4=Cc5c(cnn5-c5cccc(C(=O)N6CCC[C@@H]6C(N)=O)c5)C[C@]4(C)[C@@]3(F)[C@@H](O)C[C@@]21C`
Solution: 4.4

Exercise: Quick check: IC50 of `CCC(=O)O[C@]1(C(=O)SCF)CC[C@H]2[C@@H]3CCC4=Cc5c(cnn5-c5cccc(C(=O)NCC(=O)NC)c5)C[C@]4(C)[C@@]3(F)[C@@H](O)C[C@@]21C` ?
Solution: 0.84

Exercise: Find the recorded IC50 belonging to `CSC(=O)[C@@]1(OC(=O)C2CC2)CC[C@H]2[C@@H]3CCC4=Cc5c(cnn5-c5cccc(C(=O)N6CCC[C@@H]6C(N)=O)c5)C[C@]4(C)[C@@]3(F)[C@@H](O)C[C@@]21C` and report it.
Solution: 2.5

Exercise: Could you share which IC50 value was measured for `CCC(=O)O[C@]1(C(=O)SCC#N)CC[C@H]2[C@@H]3CCC4=Cc5c(cnn5-c5cccc(C(=O)NCCSC)c5)C[C@]4(C)[C@H]3[C@@H](O)C[C@@]21C` ?
Solution: 1.7
